- measurement_protocol: Affinity for 5-hydroxytryptamine 1 receptor
- Parameters: species or system Rattus norvegicus
metric_name: Ki

[
  {
    "compound": "CN1CCc2cc(O)c(O)c3c2C(C1)CN3c1ccc(F)cc1 (centres undefined)",
    "reading": "> 1000 nM"
  },
  {
    "compound": "CN1CCc2cccc3c2C(CN3)C1 (centres undefined)",
    "reading": "~1000 nM"
  },
  {
    "compound": "CN1CCc2cc(O)c(O)c3c2c(cn3-c2ccc(F)cc2)C1",
    "reading": "> 1000 nM"
  },
  {
    "compound": "CN1CCc2cccc3[nH]cc(c23)C1",
    "reading": "> 1000 nM"
  }
]

---

- test_target: Serotonin 2 (5-HT2) receptor (Rattus norvegicus, UniProt P30994+P08909+P14842)
- measurement_protocol: Affinity for 5-hydroxytryptamine 2 receptor
- Format: protein assay
metric_name: Ki

[
  {
    "compound": "CN1CCc2cccc3c2C(CN3)C1 (stereo not drawn)",
    "test_target": "Serotonin 2 (5-HT2) receptor (Rattus norvegicus, UniProt P30994+P08909+P14842)",
    "reading": "> 1 µM"
  },
  {
    "compound": "CN1CCc2cccc3[nH]cc(c23)C1",
    "test_target": "Serotonin 2 (5-HT2) receptor (Rattus norvegicus, UniProt P30994+P08909+P14842)",
    "reading": "> 1 µM"
  },
  {
    "compound": "CN1CCc2cc(O)c(O)c3c2c(cn3-c2ccc(F)cc2)C1",
    "test_target": "Serotonin 2 (5-HT2) receptor (Rattus norvegicus, UniProt P30994+P08909+P14842)",
    "reading": "> 1 µM"
  }
]

---

- test_target: Adrenergic receptor alpha-1 (Rattus norvegicus, UniProt P15823+P23944+P43140)
- Sequence (P15823 whole entry): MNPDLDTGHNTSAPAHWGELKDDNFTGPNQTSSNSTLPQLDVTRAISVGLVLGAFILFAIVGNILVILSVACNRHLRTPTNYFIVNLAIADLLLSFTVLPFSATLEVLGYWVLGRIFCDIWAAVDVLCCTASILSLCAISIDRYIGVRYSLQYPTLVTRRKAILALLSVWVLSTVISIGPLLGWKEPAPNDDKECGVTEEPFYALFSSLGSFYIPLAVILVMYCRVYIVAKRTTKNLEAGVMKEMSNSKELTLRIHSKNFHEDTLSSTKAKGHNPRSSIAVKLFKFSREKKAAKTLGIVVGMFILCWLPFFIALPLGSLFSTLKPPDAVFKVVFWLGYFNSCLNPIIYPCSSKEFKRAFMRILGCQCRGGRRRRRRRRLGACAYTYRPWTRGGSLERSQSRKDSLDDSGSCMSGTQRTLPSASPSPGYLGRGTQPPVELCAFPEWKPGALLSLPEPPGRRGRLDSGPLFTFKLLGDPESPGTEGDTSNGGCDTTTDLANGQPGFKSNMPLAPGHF
- Sequence (P23944 whole entry): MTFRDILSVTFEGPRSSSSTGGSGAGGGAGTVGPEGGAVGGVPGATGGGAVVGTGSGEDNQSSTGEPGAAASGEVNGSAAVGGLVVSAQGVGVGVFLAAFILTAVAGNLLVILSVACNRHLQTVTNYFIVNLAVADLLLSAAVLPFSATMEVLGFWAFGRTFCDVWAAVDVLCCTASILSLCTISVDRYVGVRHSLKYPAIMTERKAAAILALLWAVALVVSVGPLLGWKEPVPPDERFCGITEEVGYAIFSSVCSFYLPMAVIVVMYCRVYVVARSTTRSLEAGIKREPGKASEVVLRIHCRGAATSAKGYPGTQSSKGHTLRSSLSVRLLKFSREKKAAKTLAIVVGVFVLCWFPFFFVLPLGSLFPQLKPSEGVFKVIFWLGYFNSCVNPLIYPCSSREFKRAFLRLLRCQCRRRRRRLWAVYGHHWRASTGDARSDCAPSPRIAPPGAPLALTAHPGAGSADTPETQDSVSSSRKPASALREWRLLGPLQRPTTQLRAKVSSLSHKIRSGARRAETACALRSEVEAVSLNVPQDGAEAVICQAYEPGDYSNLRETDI
- Sequence (P43140 whole entry): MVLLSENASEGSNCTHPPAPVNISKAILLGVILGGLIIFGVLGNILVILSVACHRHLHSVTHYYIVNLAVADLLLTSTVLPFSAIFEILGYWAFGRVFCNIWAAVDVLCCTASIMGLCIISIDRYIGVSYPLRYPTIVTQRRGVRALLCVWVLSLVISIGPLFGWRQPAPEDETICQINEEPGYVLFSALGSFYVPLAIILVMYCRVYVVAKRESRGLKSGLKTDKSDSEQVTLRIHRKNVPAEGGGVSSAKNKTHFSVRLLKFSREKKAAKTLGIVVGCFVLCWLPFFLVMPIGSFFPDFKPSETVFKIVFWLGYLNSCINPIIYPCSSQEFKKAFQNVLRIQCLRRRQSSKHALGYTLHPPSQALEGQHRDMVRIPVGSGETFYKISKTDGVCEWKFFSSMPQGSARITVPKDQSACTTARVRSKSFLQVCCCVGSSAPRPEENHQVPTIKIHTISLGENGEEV
- measurement_protocol: Affinity for alpha-1 adrenergic receptor
- Assay type: protein assay
metric_name: Ki

[
  {
    "compound": "CN1CCc2cc(O)c(O)c3c2c(cn3-c2ccc(F)cc2)C1",
    "test_target": "Adrenergic receptor alpha-1 (Rattus norvegicus, UniProt P15823+P23944+P43140)",
    "reading": "> 500 nM"
  },
  {
    "compound": "CN1CCc2cccc3[nH]cc(c23)C1",
    "test_target": "Adrenergic receptor alpha-1 (Rattus norvegicus, UniProt P15823+P23944+P43140)",
    "reading": "< 1000 nM"
  },
  {
    "compound": "COc1cc2c3c(cn(-c4ccc(F)cc4)c3c1OC)CN(C)CC2",
    "test_target": "Adrenergic receptor alpha-1 (Rattus norvegicus, UniProt P15823+P23944+P43140)",
    "reading": "> 100 nM"
  },
  {
    "compound": "CN1CCc2cccc3c2C(CN3)C1 (centres undefined)",
    "test_target": "Adrenergic receptor alpha-1 (Rattus norvegicus, UniProt P15823+P23944+P43140)",
    "reading": "< 1000 nM"
  }
]
